target: AgnB2 Triple + Q413R mutant (Agrobacterium radiobacter, UniProt B9JQP8, A102N/Q413R/Q573M/T42P); experiment: Aminoacylation assay, AgnB2 Triple + Q413R mutant; assay type: biochemical, Agrobacterium radiobacter K84; conditions: fixed ATP concentration (0.675 mM), saturating leucine
reported.property: IC50
Mention the unit after the number when you answer.

Return IC50 (reported value) for this compound: CC(C)[C@@H](O)[C@H](O)C(=O)NP(=O)(O)OC[C@@H]1C[C@H](O)[C@H](n2cnc3c(N)ncnc32)O1
2900 nM

###

target: wt AgnB2 (LeuRS) (Agrobacterium radiobacter); assay: Isothermal titration calorimetry, wt AgnB2; assay type: binding, Agrobacterium radiobacter K84; settings: Kd, TM84 binding to AgnB2 with pre-bound tRNA, ITC, AgnB2 with pre-bound tRNA, 28 °C
reported.property: Kd (nM)
# output: bare number, implied unit nM

Provide wt AgnB2 (LeuRS) (Agrobacterium radiobacter) Kd reading for CC(C)[C@@H](O)[C@H](O)C(=O)NP(=O)(O)OC[C@@H]1C[C@H](O)[C@H](n2cnc3c(N)ncnc32)O1 .
332

###

reported.property: pIC50
Entry type: numeric. Quantity: pIC50, the -log10 of concentration in molar units.

Provide wt AgnB2 (LeuRS) (Agrobacterium radiobacter, UniProt B9JQP8) pIC50 reading for CC(C)[C@@H](O)[C@H](O)C(=O)NP(=O)(O)OC[C@@H]1C[C@H](O)[C@H](n2cnc3c(N)ncnc32)O1 .
4.21

###

target: wt AgnB2 (LeuRS) (Agrobacterium radiobacter, UniProt B9JQP8); assay: Isothermal titration calorimetry, wt AgnB2; format: binding, Agrobacterium radiobacter K84; settings: Kd, ITC, ligand binding to AgnB2 alone, 28 °C, pH 7.4
reported.property: Kd (nM)
# output: bare number, implied unit nM

Return Kd (reported value) for this compound: CC(C)[C@@H](O)[C@H](O)C(=O)NP(=O)(O)OC[C@@H]1C[C@H](O)[C@H](n2cnc3c(N)ncnc32)O1
1050

###

molecular target: UniProt B9JQP8; assay: Aminoacylation assay, wt AgnB2; conditions: apparent TM84 inhibition constant (Ki), varying ATP, aminoacylation, fixed leucine; AgnB2·tRNALeu pre-incubated; 2 nM enzyme, 28 °C, pH 7.4
reported.property: Ki (µM)
# output: bare number, implied unit µM

Return Ki (reported value) for this compound: CC(C)[C@@H](O)[C@H](O)C(=O)NP(=O)(O)OC[C@@H]1C[C@H](O)[C@H](n2cnc3c(N)ncnc32)O1
4.72

###

biological target: LeuRS H. pylori (LeuRSHp) (Helicobacter pylori)
reported.property: IC50 (nM)
# output: bare number, implied unit nM

Return IC50 (reported value) for this compound: CC(C)[C@@H](O)[C@H](O)C(=O)NP(=O)(O)OC[C@@H]1C[C@H](O)[C@H](n2cnc3c(N)ncnc32)O1 [TM84]
34

###

Target: wt AgnB2 (LeuRS) (Agrobacterium radiobacter, UniProt B9JQP8)
Experiment: Isothermal titration calorimetry, wt AgnB2
Format: binding, Agrobacterium radiobacter K84
Settings: ITC, ligand binding to AgnB2 alone, 28 °C, pH 7.4; read-out: Kd
Method: Typically, about 4–8 μM active protein solution and a 10-fold higher ligand concentration were prepared in buffer containing 50 mM HEPES (pH 7.4), 20 mM KCl 10 mM MgCl2 and 1 mM β-ME. The titrations were carried out in triplicate at 28 °C. The data was then analyzed using Origin software (version 7) and fitted to a one-site or a two-site binding model to obtain the binding affinity (Kd), stoichiometry (N) and enthalpy (ΔH) for each complex.
reported.property: Kd (nM)
# output: bare number, implied unit nM

Provide wt AgnB2 (LeuRS) (Agrobacterium radiobacter, UniProt B9JQP8) Kd reading for CC(C)CC(N)C(=O)NS(=O)(=O)OCC1OC(n2cnc3c(N)ncnc32)C(O)C1O (stereo not shown) [Leu-AMS, reference compound] .
4.4

###

target: LeuRSAt (Agrobacterium tumefaciens, UniProt Q8UBV2)
reported.property: pKd
Entry type: numeric. Quantity: pKd, the -log10 of concentration in molar units.

Provide LeuRSAt (Agrobacterium tumefaciens, UniProt Q8UBV2) pKd reading for CC(C)CC(N)C(=O)NS(=O)(=O)OCC1OC(n2cnc3c(N)ncnc32)C(O)C1O (stereo not shown) [Leu-AMS, reference compound] .
8.80
